Source listed as a melting point compilation (Tetko et al.; mined from patent text by program, amines drawn as free bases though some values may be those of a salt).

In this section we review reported melting point values for a set of compounds.

* CC(C)(N)c1ccc(-c2nc(Nc3cccc(CCN4CCOCC4)c3)ncc2C#N)cc1 | 166 to 167 °C
* Cc1ccc2c(c1)[nH]c(=O)n2CCCN1CCC2(CC1)C(=O)NCN2c1ccccc1 | 256 °C
* O=C(Nc1n[nH]c(=S)s1)N[C@@H](Cc1ccccc1)C(=O)N1CCN(c2ccccc2)CC1 | 210 to 211 °C
* CC(C)(C)c1csc(NC(=O)c2ccn3c(=O)c(/C=C/C(=O)O)c(N4CCC(OC(=O)NCCO)CC4)nc3c2)n1 | 231 to 234 °C
* CCCCN1CCC(C(=O)O)(S(=O)(=O)c2ccc(OCCC(C)C)cc2)CC1 | 188 °C

Next, consider the following compound.
Task item: Would you mind telling me what melting point value was observed for CC(C)(SSc1ccccc1C(=O)Nc1ccc(S(N)(=O)=O)cc1)C(N)C(=O)O (stereo not given) ?
Reply: 115 to 118 °C

----------
In this section we review reported melting point values for a set of compounds.

Below, each entry is followed by its recorded melting point result.
* COC(=O)C(C)Oc1ccc(Oc2ccc3cc(Cl)cc(Cl)c3n2)cc1 (stereo unspecified) | 70 °C
* COc1cc(Cl)c2c(-c3ccccc3F)noc2c1 | 113 to 115 °C
* COC(=O)c1cn(CC(F)(F)F)c2c(C)cc(F)cc2c1=O | 168 to 171 °C

Task item: Would you mind telling me what melting point value was observed for CC(C(=O)N1c2ccccc2C(=O)Nc2cccnc21)N1CCN(C)CC1 (stereo unspecified) ?
Reply: 223 to 224 °C

Task item: Would you mind telling me what melting point value was observed for CC(=O)c1c(O)cc(O)cc1O ?
Reply: 218 to 219 °C

Task item: Would you mind telling me what melting point value was observed for CC1(S(=O)(=O)c2ccccc2)CCc2nc(-c3ccccc3)[nH]c(=O)c2C1 (stereo unspecified) ?
Reply: > 250 °C

Task item: Would you mind telling me what melting point value was observed for CC(C)(C)C(O)C(C(Sc1ccccc1)c1ccc(F)cc1)n1cncn1 (stereo unspecified) ?
Reply: 171 °C

Task item: Would you mind telling me what melting point value was observed for Cc1noc(NS(=O)(=O)c2ccc(-c3ccccc3)cc2)c1Cl ?
Reply: 129 to 132 °C

Task item: Would you mind telling me what melting point value was observed for Cc1ccc(Cn2nc(Br)c([N+](=O)[O-])c2NCc2ccccc2)cc1 ?
Reply: 108 °C

Task item: Would you mind telling me what melting point value was observed for COC(=O)c1ccc(OCC(N)=O)c(N)c1 ?
Reply: 181 to 182 °C

Task item: Would you mind telling me what melting point value was observed for OC(CNCCCCCCOCCCc1ccc(N2CCCCC2)cc1)c1ccc2c(n1)COC(c1ccccc1)O2 (stereo unspecified) ?
Reply: 75 to 76 °C

Task item: Would you mind telling me what melting point value was observed for O=C(O)COc1ccc(C2=CC(=O)CC(c3ccc(F)cc3)C2)c(Cl)c1Cl (stereo unspecified) ?
Reply: 190 to 192 °C

Task item: Would you mind telling me what melting point value was observed for OCc1sc(Cl)nc1-c1ccc(Cl)cc1 ?
Reply: 113 to 114 °C

Task item: Would you mind telling me what melting point value was observed for C[C@@H](Nc1ncnc2[nH]c(-c3ccc(CNC(=O)CCN4CCCCC4)cc3)cc12)c1ccccc1 ?
Reply: 140 °C

Task item: Would you mind telling me what melting point value was observed for COCC1=C(C)C(=O)C(OC)=C(OC)C1=O ?
Reply: 31 to 36 °C

Task item: Would you mind telling me what melting point value was observed for CS(=O)(=O)CCc1nc2nc[nH]c2c2nc(-c3ccc(-c4ccccc4)cc3)nn12 ?
Reply: 280 °C

Task item: Would you mind telling me what melting point value was observed for CCC[C@H]1CC[C@H](C(=O)O)CC1 ?
Reply: 97 to 98 °C

Task item: Would you mind telling me what melting point value was observed for CC[Si](C#Cc1ccc2nc(-c3ncc[nH]3)nc(NCCOC)c2c1)(CC)CC ?
Reply: 158 to 160 °C

Task item: Would you mind telling me what melting point value was observed for Cc1nc(N(C)c2ccc(Cl)cc2)sc1-c1ccnc(Nc2ccc(N3CCOCC3)cc2)n1 ?
Reply: 245 to 246 °C

Task item: Would you mind telling me what melting point value was observed for CCOC(=O)c1ncc2[nH]c3ccc(C(C)(C)C)cc3c2c1C ?
Reply: 201 to 203 °C

Task item: Would you mind telling me what melting point value was observed for C=C1CC(COc2cccc3ccc(C)nc23)(c2ccccc2)OC1=O (stereo unspecified) ?
Reply: 108 to 109 °C
